tested on: Triticum aestivum; assay: Toxicity in Triticum aestivum (wheat) plant assessed as inhibition at 150 g/hectare; type: organism-based; conditions: in vivo
assay-metric: inhibition (INH) (%)
Report the figure in % without appending any unit label.

>>> result_number("CC1(C)COP(=O)(C(OC(=O)COc2ccc(Cl)cc2Cl)c2ccco2)OC1 (stereo not drawn)")
10

Query string: Which inhibition (INH) value is on record for CC(OC(=O)COc1ccc(Cl)cc1Cl)P1(=O)OCC(C)(C)CO1 (stereo not drawn) ?
Result string: 0

Query string: Which inhibition (INH) value is on record for Cc1cc(Cl)ccc1OCC(=O)OC(C)P1(=O)OCC(C)(C)CO1 (stereo not drawn) ?
Result string: 0

Query string: Which inhibition (INH) value is on record for CC1(C)COP(=O)(C(OC(=O)COc2ccc(Cl)cc2Cl)c2ccc(Cl)cc2)OC1 (stereo not drawn) ?
Result string: 0
